# Test system: Bacteroides fragilis
# test.method.notes: Antibacterial activity against Bacteroides fragilis ATCC 23745 by NCCLS method
# Type: functional
recorded.endpoint: MIC (µg/mL)

mol.smiles	recorded.endpoint	quantity.unit	relational.operator	endpoint.result
CC(C)NC(=N)c1ccc2[nH]c(-c3ccc(Oc4ccc(-c5nc6cc(C(=N)NC(C)C)ccc6[nH]5)cc4)cc3)nc2c1	MIC	µg/mL	=	2
CC(C)NC(=N)c1ccc2[nH]c(-c3ccc(N(c4ccccc4)c4ccc(-c5nc6cc(C(=N)NC(C)C)ccc6[nH]5)cc4)cc3)nc2c1	MIC	µg/mL	=	4
CC(C)NC(=N)c1ccc2[nH]c(-c3ccc(Nc4ccc(-c5nc6cc(C(=N)NC(C)C)ccc6[nH]5)cc4)cc3)nc2c1	MIC	µg/mL	>	32
CC(C)NC(=N)c1ccc2[nH]c(-c3ccc4c(c3)Cc3ccc(-c5nc6cc(C(=N)NC(C)C)ccc6[nH]5)cc3S4)nc2c1	MIC	µg/mL	>	32

* * *

Items are presented alongside their recorded MIC.
# Tested on: Enterococcus faecalis
# test.method.notes: Antibacterial activity against vancomycin-resistant Enterococcus faecalis ATCC 51575 by NCCLS method
# Type: functional

mol.smiles	target.entity	MIC [mg/L]
CC(C)NC(=N)c1ccc2[nH]c(-c3ccc(Oc4ccc(-c5nc6cc(C(=N)NC(C)C)ccc6[nH]5)cc4)cc3)nc2c1	Enterococcus faecalis	0.12
CC(C)NC(=N)c1ccc2[nH]c(-c3ccc(C#Cc4ccc(-c5nc6cc(C(=N)NC(C)C)ccc6[nH]5)cc4)cc3)nc2c1	Enterococcus faecalis	32
CC(C)NC(=N)c1ccc2[nH]c(-c3ccc(COc4ccc(-c5nc6cc(C(=N)NC(C)C)ccc6[nH]5)cc4)cc3)nc2c1	Enterococcus faecalis	1
CC(C)NC(=N)c1ccc2[nH]c(-c3ccc(N(c4ccccc4)c4ccc(-c5nc6cc(C(=N)NC(C)C)ccc6[nH]5)cc4)cc3)nc2c1	Enterococcus faecalis	0.5

* * *

# Tested on: Bacteroides fragilis
# test.method.notes: Antibacterial activity against Bacteroides fragilis ATCC 23745 by NCCLS method
# Assay type: functional
Threshold 2 µg/mL. MIC below it: Satisfied. MIC at it or above: Not satisfied.

mol.smiles	target.entity	discrete.label
CC(C)NC(=N)c1ccc2[nH]c(-c3ccc(N(C)c4ccc(-c5nc6cc(C(=N)NC(C)C)ccc6[nH]5)cc4)cc3)nc2c1	Bacteroides fragilis	Not satisfied
CC(C)NC(=N)c1ccc2[nH]c(-c3ccc(COc4ccc(-c5nc6cc(C(=N)NC(C)C)ccc6[nH]5)cc4)cc3)nc2c1	Bacteroides fragilis	Not satisfied
CC(C)NC(=N)c1ccc2[nH]c(-c3ccc([C@@H]4C[C@H]4c4ccc(-c5nc6cc(C(=N)NC(C)C)ccc6[nH]5)cc4)cc3)nc2c1	Bacteroides fragilis	Satisfied
CC(C)NC(=N)c1ccc2[nH]c(-c3ccc(CCc4ccc(-c5nc6cc(C(=N)NC(C)C)ccc6[nH]5)cc4)cc3)nc2c1	Bacteroides fragilis	Satisfied
CC(C)NC(=N)c1ccc2[nH]c(-c3ccc(-c4ccc(-c5ccc(-c6nc7cc(C(=N)NC(C)C)ccc7[nH]6)cc5)o4)cc3)nc2c1	Bacteroides fragilis	Not satisfied
O=C(O)c1cn(C2CC2)c2cc(N3CCNCC3)c(F)cc2c1=O	Bacteroides fragilis	Satisfied
CC(C)NC(=N)c1ccc2[nH]c(-c3ccc(C#Cc4ccc(-c5nc6cc(C(=N)NC(C)C)ccc6[nH]5)cc4)cc3)nc2c1	Bacteroides fragilis	Not satisfied
CC1(C)S[C@@H]2[C@H](NC(=O)Cc3ccccc3)C(=O)N2[C@H]1C(=O)O	Bacteroides fragilis	Not satisfied
CC(C)NC(=N)c1ccc2[nH]c(-c3ccc(/C=C/c4ccc(-c5nc6cc(C(=N)NC(C)C)ccc6[nH]5)cc4)cc3)nc2c1	Bacteroides fragilis	Satisfied
CC(C)NC(=N)c1ccc2[nH]c(-c3ccc(Cc4ccc(-c5nc6cc(C(=N)NC(C)C)ccc6[nH]5)cc4)cc3)nc2c1	Bacteroides fragilis	Satisfied
CC(C)NC(=N)c1ccc2[nH]c(-c3ccc(Sc4ccc(-c5nc6cc(C(=N)NC(C)C)ccc6[nH]5)cc4)cc3)nc2c1	Bacteroides fragilis	Not satisfied
CN[C@H](CC(C)C)C(=O)N[C@H]1C(=O)N[C@@H](CC(N)=O)C(=O)N[C@H]2C(=O)N[C@H]3C(=O)N[C@H](C(=O)N[C@H](C(=O)O)c4cc(O)cc(O)c4-c4cc3ccc4O)[C@H](O)c3ccc(c(Cl)c3)Oc3cc2cc(c3O[C@@H]2O[C@H](CO)[C@@H](O)[C@H](O)[C@H]2O[C@H]2C[C@](C)(N)[C@H](O)[C@H](C)O2)Oc2ccc(cc2Cl)[C@H]1O	Bacteroides fragilis	Not satisfied

* * *

# System: Enterococcus faecium
# test.method.notes: Antibacterial activity against vancomycin-resistant Enterococcus faecium ATCC 700221 by NCCLS method
# Assay type: functional

mol.smiles	MIC
CC(C)NC(=N)c1ccc2[nH]c(-c3ccc(N(c4ccccc4)c4ccc(-c5nc6cc(C(=N)NC(C)C)ccc6[nH]5)cc4)cc3)nc2c1	0.12 µg/mL
CC1(C)S[C@@H]2[C@H](NC(=O)Cc3ccccc3)C(=O)N2[C@H]1C(=O)O	> 32 µg/mL
CN[C@H](CC(C)C)C(=O)N[C@H]1C(=O)N[C@@H](CC(N)=O)C(=O)N[C@H]2C(=O)N[C@H]3C(=O)N[C@H](C(=O)N[C@H](C(=O)O)c4cc(O)cc(O)c4-c4cc3ccc4O)[C@H](O)c3ccc(c(Cl)c3)Oc3cc2cc(c3O[C@@H]2O[C@H](CO)[C@@H](O)[C@H](O)[C@H]2O[C@H]2C[C@](C)(N)[C@H](O)[C@H](C)O2)Oc2ccc(cc2Cl)[C@H]1O	> 64 µg/mL

* * *

# System: Enterococcus faecalis
# test.method.notes: Antibacterial activity against vancomycin-resistant Enterococcus faecalis ATCC 51575 by NCCLS method
# Type: functional

mol.smiles	relational.operator	MIC [µg/mL]
CC(C)NC(=N)c1ccc2[nH]c(-c3ccc(CCc4ccc(-c5nc6cc(C(=N)NC(C)C)ccc6[nH]5)cc4)cc3)nc2c1	=	0.25
CC(C)NC(=N)c1ccc2[nH]c(-c3ccc([C@@H]4C[C@H]4c4ccc(-c5nc6cc(C(=N)NC(C)C)ccc6[nH]5)cc4)cc3)nc2c1	=	0.5
O=C(O)c1cn(C2CC2)c2cc(N3CCNCC3)c(F)cc2c1=O	=	0.5
CC(C)NC(=N)c1ccc2[nH]c(-c3ccc(NS(=O)(=O)c4ccc(-c5nc6cc(C(=N)NC(C)C)ccc6[nH]5)cc4)cc3)nc2c1	=	2
CC(C)NC(=N)c1ccc2[nH]c(-c3ccc(Nc4ccc(-c5nc6cc(C(=N)NC(C)C)ccc6[nH]5)cc4)cc3)nc2c1	=	0.25
CC(C)NC(=N)c1ccc2[nH]c(-c3ccc(-c4ccc(-c5ccc(-c6nc7cc(C(=N)NC(C)C)ccc7[nH]6)cc5)o4)cc3)nc2c1	>	32
CC(C)NC(=N)c1ccc2[nH]c(-c3ccc4c(c3)Cc3ccc(-c5nc6cc(C(=N)NC(C)C)ccc6[nH]5)cc3S4)nc2c1	=	16
CN[C@H](CC(C)C)C(=O)N[C@H]1C(=O)N[C@@H](CC(N)=O)C(=O)N[C@H]2C(=O)N[C@H]3C(=O)N[C@H](C(=O)N[C@H](C(=O)O)c4cc(O)cc(O)c4-c4cc3ccc4O)[C@H](O)c3ccc(c(Cl)c3)Oc3cc2cc(c3O[C@@H]2O[C@H](CO)[C@@H](O)[C@H](O)[C@H]2O[C@H]2C[C@](C)(N)[C@H](O)[C@H](C)O2)Oc2ccc(cc2Cl)[C@H]1O	>	32
CC(C)NC(=N)c1ccc2[nH]c(-c3ccc(N(C)c4ccc(-c5nc6cc(C(=N)NC(C)C)ccc6[nH]5)cc4)cc3)nc2c1	=	0.25
CC(C)NC(=N)c1ccc2[nH]c(-c3ccc(Cc4ccc(-c5nc6cc(C(=N)NC(C)C)ccc6[nH]5)cc4)cc3)nc2c1	=	0.25
CC(C)NC(=N)c1ccc2[nH]c(-c3ccc(Sc4ccc(-c5nc6cc(C(=N)NC(C)C)ccc6[nH]5)cc4)cc3)nc2c1	>	32
CC(C)NC(=N)c1ccc2[nH]c(-c3ccc(/C=C/c4ccc(-c5nc6cc(C(=N)NC(C)C)ccc6[nH]5)cc4)cc3)nc2c1	=	0.5
CC1(C)S[C@@H]2[C@H](NC(=O)Cc3ccccc3)C(=O)N2[C@H]1C(=O)O	=	4

* * *

# System: Clostridium perfringens
# test.method.notes: Antibacterial activity against Clostridium perfringens ATCC 10388 by NCCLS method
# Type: functional

mol.smiles	quantity.unit	relational.operator	MIC
CC(C)NC(=N)c1ccc2[nH]c(-c3ccc4c(c3)Cc3ccc(-c5nc6cc(C(=N)NC(C)C)ccc6[nH]5)cc3S4)nc2c1	µg/mL	=	0.5
CC(C)NC(=N)c1ccc2[nH]c(-c3ccc(N(c4ccccc4)c4ccc(-c5nc6cc(C(=N)NC(C)C)ccc6[nH]5)cc4)cc3)nc2c1	µg/mL	=	1
CC(C)NC(=N)c1ccc2[nH]c(-c3ccc(Nc4ccc(-c5nc6cc(C(=N)NC(C)C)ccc6[nH]5)cc4)cc3)nc2c1	µg/mL	=	2
CC(C)NC(=N)c1ccc2[nH]c(-c3ccc(Cc4ccc(-c5nc6cc(C(=N)NC(C)C)ccc6[nH]5)cc4)cc3)nc2c1	µg/mL	=	1
CC(C)NC(=N)c1ccc2[nH]c(-c3ccc(COc4ccc(-c5nc6cc(C(=N)NC(C)C)ccc6[nH]5)cc4)cc3)nc2c1	µg/mL	=	16
CC1(C)S[C@@H]2[C@H](NC(=O)Cc3ccccc3)C(=O)N2[C@H]1C(=O)O	µg/mL	≤	0.12
CC(C)NC(=N)c1ccc2[nH]c(-c3ccc(Oc4ccc(-c5nc6cc(C(=N)NC(C)C)ccc6[nH]5)cc4)cc3)nc2c1	µg/mL	=	0.5
CC(C)NC(=N)c1ccc2[nH]c(-c3ccc(CCc4ccc(-c5nc6cc(C(=N)NC(C)C)ccc6[nH]5)cc4)cc3)nc2c1	µg/mL	=	0.25
CC(C)NC(=N)c1ccc2[nH]c(-c3ccc(-c4ccc(-c5ccc(-c6nc7cc(C(=N)NC(C)C)ccc7[nH]6)cc5)o4)cc3)nc2c1	µg/mL	=	1
CC(C)NC(=N)c1ccc2[nH]c(-c3ccc(/C=C/c4ccc(-c5nc6cc(C(=N)NC(C)C)ccc6[nH]5)cc4)cc3)nc2c1	µg/mL	=	0.5
CN[C@H](CC(C)C)C(=O)N[C@H]1C(=O)N[C@@H](CC(N)=O)C(=O)N[C@H]2C(=O)N[C@H]3C(=O)N[C@H](C(=O)N[C@H](C(=O)O)c4cc(O)cc(O)c4-c4cc3ccc4O)[C@H](O)c3ccc(c(Cl)c3)Oc3cc2cc(c3O[C@@H]2O[C@H](CO)[C@@H](O)[C@H](O)[C@H]2O[C@H]2C[C@](C)(N)[C@H](O)[C@H](C)O2)Oc2ccc(cc2Cl)[C@H]1O	µg/mL	=	0.12
CC(C)NC(=N)c1ccc2[nH]c(-c3ccc(Sc4ccc(-c5nc6cc(C(=N)NC(C)C)ccc6[nH]5)cc4)cc3)nc2c1	µg/mL	>	32
CC(C)NC(=N)c1ccc2[nH]c(-c3ccc(NS(=O)(=O)c4ccc(-c5nc6cc(C(=N)NC(C)C)ccc6[nH]5)cc4)cc3)nc2c1	µg/mL	=	4
CC(C)NC(=N)c1ccc2[nH]c(-c3ccc(C#Cc4ccc(-c5nc6cc(C(=N)NC(C)C)ccc6[nH]5)cc4)cc3)nc2c1	µg/mL	=	4
CC(C)NC(=N)c1ccc2[nH]c(-c3ccc(N(C)c4ccc(-c5nc6cc(C(=N)NC(C)C)ccc6[nH]5)cc4)cc3)nc2c1	µg/mL	=	1
CC(C)NC(=N)c1ccc2[nH]c(-c3ccc([C@@H]4C[C@H]4c4ccc(-c5nc6cc(C(=N)NC(C)C)ccc6[nH]5)cc4)cc3)nc2c1	µg/mL	=	0.25
